Test: CCTE_Shafer_MEA_acute_per_network_burst_spike_number_std: CCTE's Neural Acute Assay for Standard Deviation of Number of Spikes in a Network Burst, Shafer Lab (AID 2284020);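 note: fitted for decrease in spike-number SD versus DMSO so actives lower it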
Calls of active or inactive are those of the source. Rule for the calls: active = hit-call score of the fitted dose curve at least 0.9, where 1 is the maximum; inactive = score below 0.9.
Pick one: class 1 = active, class 0 = inactive

- molecule: "NCC1(Cc2noc(=O)[nH]2)CCCCC1"
  assigned class: "class 0"

// next entry
Returns: the outcome recorded for `Cc1ccc(C)c(O)c1C` in this assay.
class 0

====

Read-out: Transforming growth factor beta 1 (TGFb1), TGFB1 (gene 7040)
Test: BSK_BE3C_TGFb1: BioMAP Diversity Plus: BE3C Assay for Transforming growth factor beta 1 (TGFb1) Biomarker Activity (AID 2283036)
Details: primary human bronchial epithelial cells; actives raise or lower the signal
The source made the active and inactive calls. The calls were made as follows: active = hit-call score of the fitted dose curve at least 0.9, where 1 is the maximum; inactive = score below 0.9.
# valid calls are active, inactive; nothing else

Example results:
- compound: "CCCCN(CCCC)CCCC"
  assigned class: "inactive"
- compound: "CN[C@H]1CC[C@@H](c2ccc(Cl)c(Cl)c2)c2ccc(S(N)(=O)=O)cc21"
  assigned class: "active"
- compound: "Cc1ccc(C(C)C)c(O)c1"
  assigned class: "inactive"
- compound: "COc1ccc2c(c1)c(CC(=O)O)c(C)n2C(=O)c1ccc(Cl)cc1"
  assigned class: "inactive"
- compound: "Cc1ccccc1Cl"
  assigned class: "inactive"
- compound: "CCCCCCC(=O)OCC"
  assigned class: "inactive"
- compound: "Clc1cc(Cl)c(Cl)cc1Cl"
  assigned class: "inactive"
- compound: "COc1cc(-c2nc(NC(=O)c3cc4cc(C)cc(C)c4n3CC(=O)O)sc2CCC2CCCCC2)c(OC)cc1Cl"
  assigned class: "active"

Hi, do you know how `CCCCCCCCCCCCCO` came out in this test?
inactive

Recorded call for Cc1nc(-c2ccc3c(c2)CCN(CCC2CCC(NC(=O)/C=C/c4ccc(F)cc4)CC2)CC3)no1 (configuration not stated) ?
inactive

Which outcome was entered for the compound `FC(F)(F)C(F)(F)C(F)(F)C(F)(F)C(F)(F)C(F)(F)CCI` in this test?
inactive

Assay result, entry `O=C(N[C@@H](Cc1ccccc1)[C@@H](O)C(=O)N1C[C@@H](O)[C@@H](O)C1)c1cc2cc(Cl)ccc2[nH]1` — outcome?
inactive

Data credit: PubChem BioAssay (EPA / NIEHS)
